Target: KRAS WT (Homo sapiens (Human), UniProt P01116+P62937)
Sequence (P01116 other isoform, or with tags, fused parts or gaps): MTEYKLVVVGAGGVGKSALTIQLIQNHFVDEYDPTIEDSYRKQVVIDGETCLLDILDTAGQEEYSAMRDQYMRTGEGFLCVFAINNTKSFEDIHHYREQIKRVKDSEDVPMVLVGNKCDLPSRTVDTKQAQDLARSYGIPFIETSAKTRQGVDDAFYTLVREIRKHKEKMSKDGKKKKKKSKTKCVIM
Sequence (P62937 whole entry): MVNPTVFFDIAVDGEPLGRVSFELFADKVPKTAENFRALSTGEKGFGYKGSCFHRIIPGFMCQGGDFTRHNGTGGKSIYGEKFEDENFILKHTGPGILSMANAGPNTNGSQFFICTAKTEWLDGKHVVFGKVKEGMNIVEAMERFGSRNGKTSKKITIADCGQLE
Experiment: Ras-Raf disruption/FRET/MOA assay (BRAF RBD, Cyclophilin A)
Format: biochemical
Conditions: read-out: KRAS WT FRET data IC50
Procedure: Compound is present in plate wells as a 10-point 3-fold dilution series starting at a final concentration of 30 μM. After incubation at 25° C. for 3 hours, a mixture of Anti-His Eu—W1024 and anti-GST allophycocyanin is then added to assay sample wells at final concentrations of 10 nM and 50 nM, respectively, and the reaction incubated for an additional 1.5 hours. […]
pIC50: −log10 of the molar value.
Below, each entry is listed with its recorded pIC50.

Solved cases below.
CCn1c(-c2cccnc2[C@H](C)OC)c2c3cc(ccc31)-c1csc(n1)C[C@H](NC(=O)[C@H](C(C)C)N(C)C(=O)N1CC(C(=O)O)C1)C(=O)N1CCC[C@H](N1)C(=O)OCC(C)(C)C2: 6.00 to 7.00
CCn1c(-c2cccnc2[C@H](C)OC)c2c3cc(ccc31)-c1cc(O)cc(c1)C[C@H](NC(=O)[C@H](C(C)C)N(C)C(=O)[C@H]1CC1(C)C)C(=O)N1CCC[C@H](N1)C(=O)OCC(C)(C)C2: 6.00 to 7.00
CCn1c(-c2cc(N3CCN(C)CC3)cnc2[C@H](C)OC)c2c3cc(ccc31)-c1csc(n1)C[C@H](NC(=O)[C@H](C(C)C)N(C)C(=O)[C@@H]1OCC[C@@H]1c1ccncc1)C(=O)N1CCC[C@H](N1)C(=O)OCC(C)(C)C2: 6.00 to 7.00
CCn1c(-c2cccnc2[C@H](C)OC)c2c3cc(ccc31)-c1csc(n1)C[C@H](NC(=O)[C@H](C(C)C)N(C)C(=O)N1CC(OC)C1)C(=O)N1CCC[C@H](N1)C(=O)OCC(C)(C)C2: 6.00 to 7.00

Problem: Identify measured pIC50 corresponding to CCn1c(-c2cccnc2[C@H](C)OC)c2c3cc(ccc31)-c1csc(n1)C[C@H](NC(=O)[C@H](C(C)C)N(C)C(=O)[C@@H]1OCC[C@@H]1c1ccccc1)C(=O)N1CCC[C@H](N1)C(=O)OCC(C)(C)C2
Result: 6.00 to 7.00

Problem: Given CCn1c(-c2cccnc2[C@H](C)OC)c2c3cc(ccc31)-c1csc(n1)C[C@H](NC(=O)[C@H](C(C)C)N1C[C@@H](c3ccccc3)CC1=O)C(=O)N1CCC[C@H](N1)C(=O)OCC(C)(C)C2 (single isomer, unassigned) , respond with its pIC50.
Result: 5.00 to 6.00

Problem: Name the recorded pIC50 of the molecule listed here: CCn1c(-c2cccnc2[C@H](C)OC)c2c3cc(ccc31)-c1cc(O)cc(c1)C[C@H](NC(=O)[C@H](C(C)C)N(C)C(=O)[C@@H]1CCN(C(=O)OC)C1)C(=O)N1CCC[C@H](N1)C(=O)OCC(C)(C)C2
Result: 7.00 to 8.00

Problem: Annotate the molecule CCn1c(-c2cccnc2[C@H](C)OC)c2c3cc(ccc31)-c1csc(n1)C[C@H](NC(=O)[C@H](C(C)C)N(C)C(=O)N1CCOC[C@@H]1C)C(=O)N1CCC[C@H](N1)C(=O)OCC(C)(C)C2 with its measured pIC50.
Result: 6.00 to 7.00

Problem: Supply recorded pIC50 for CCn1c(-c2cccnc2[C@H](C)OC)c2c3cc(ccc31)-c1csc(n1)C[C@H](NC(=O)[C@H](C(C)C)N(C)C(=O)N1CC(Cc3cnn(C)c3)C1)C(=O)N1CCC[C@H](N1)C(=O)OCC(C)(C)C2 here.
Result: 7.00 to 8.00
